B1: EEHEE_rd4_0363 (parent)
chain: VTVDIKGMEYHFDNPEEAKKFAERMAKELGGELKVENGTLKVE

variants of: B1; experiment: folding stability dG (cDNA display proteolysis); higher = more stable; conditions: PBS, room temperature
Using folding stability dG as the sorting value, the categories are bin 1 (below 1 kcal/mol), bin 2 (1 kcal/mol to below 2 kcal/mol), bin 3 (2 kcal/mol or more)

Data request: Which folding stability dG category applies to `T39P` here?
Data returned: bin 1

Data request: Now this one: `V35K`
Data returned: bin 2

Data request: Now this one: `E43K`
Data returned: bin 2

Data request: Now this one: `K27T`
Data returned: bin 2

Data request: Now this one: `L40K`
Data returned: bin 1

Data request: Now this one: `V35I`
Data returned: bin 3

Data request: Now this one: `L40D`
Data returned: bin 1

Data request: Now this one: `N37L`
Data returned: bin 2

Data request: Now this one: `L29D`
Data returned: bin 1

Data request: Now this one: `L33A`
Data returned: bin 2

Data request: Now this one: `D13Y`
Data returned: bin 2

Data request: Now this one: `M25W`
Data returned: bin 3

Data request: Now this one: `L40R`
Data returned: bin 1

Data request: Now this one: `K6Y`
Data returned: bin 3

Data request: Now this one: `E9L`
Data returned: bin 3

Data request: Now this one: `N14F`
Data returned: bin 1

Data request: Now this one: `N37P`
Data returned: bin 2

Data request: Now this one: `T39R`
Data returned: bin 3

Data request: Now this one: `M8K`
Data returned: bin 3

Data request: Now this one: `K6P`
Data returned: bin 1

Data request: Now this one: `P15R`
Data returned: bin 2
